- tested.target: T1, cynomolgus ILT7 (cynomolgus, UniProt P59901 24-499 (human entry))
- T1 construct: also called cyno ILT7; cynomolgus monkey ILT7
- T1 sequence (P59901 other isoform, or with tags, fused parts or gaps limits assumed): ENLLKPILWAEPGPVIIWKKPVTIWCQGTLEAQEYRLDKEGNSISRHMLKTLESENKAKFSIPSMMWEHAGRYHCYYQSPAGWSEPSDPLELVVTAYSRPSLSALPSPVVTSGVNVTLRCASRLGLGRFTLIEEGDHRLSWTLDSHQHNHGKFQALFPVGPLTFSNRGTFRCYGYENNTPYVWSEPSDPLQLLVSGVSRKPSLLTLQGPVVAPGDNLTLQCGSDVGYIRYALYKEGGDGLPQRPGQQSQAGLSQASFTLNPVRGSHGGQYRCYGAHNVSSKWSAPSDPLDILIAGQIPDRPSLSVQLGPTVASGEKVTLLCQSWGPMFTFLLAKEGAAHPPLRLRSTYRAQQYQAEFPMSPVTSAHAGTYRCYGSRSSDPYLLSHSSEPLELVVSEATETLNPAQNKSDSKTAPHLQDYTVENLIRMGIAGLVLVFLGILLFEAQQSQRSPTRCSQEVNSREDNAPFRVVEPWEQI
- assay.info: flow cytometry on cynomolgus ILT7-expressing cells, bottom panel, table 'Ec50 (pM)'
recorded.metric: EC50 (nM)
Numbers only; they are read as nM.

stdin: Looking for the measured EC50 of ILT70083.3 (antibody, V domains shown, Engineered (germlined) IgG1 variant of ILT70083) VH: EVQLLESGGGLVQPGGSLRLSCAASGFTFSSYAMSWVRQAPGKGLEWVSAISGSGGSTYYADSVKGWFTISRDNSKNTLYLQMNSLRAEDTAVYYCARRTYYYDSDGHSDVFDIWGRGTLVTVSS VL: QSVVTQPPSVSAAPGQKVTISCSGSASNIGSNFVSWYQQLPGTAPKLLIYDNDKRDLGIPDRFSGSKSGTSATLGITGLQTGDEADYYCGTWDTSLTVGVFGGGTKLTVL , can you help?
stdout: 0.777
